Below, each entry is listed with its recorded normalised viability.
Test system: HCC1937
Assay: normalised viability (% of control), CellTiter-Blue; higher = more viable cells (about 100 = DMSO control)
Settings: 1000 nM; incubation time: 72 h
Please reply with the bare figure in % and do not write the unit itself.

[[record]]
compound = "CCOc1cc2ncc(C#N)c(Nc3ccc(OCc4ccccn4)c(Cl)c3)c2cc1NC(=O)/C=C/CN(C)C [Neratinib]"
readout_label = "normalised viability"
display_unit = "%"
obs_value = 96.3

[[record]]
compound = "COC1=CC(c2cc3ccccc3[nH]2)=N/C1=C\\c1[nH]c(C)cc1C [Obatoclax]"
readout_label = "normalised viability"
display_unit = "%"
obs_value = 21.4

[[record]]
compound = "Cn1c(=O)c(F)c(Nc2ccc(I)cc2F)c2c(=O)n(C[C@@H](O)CO)cnc21 [TAK-733]"
readout_label = "normalised viability"
display_unit = "%"
obs_value = 74

[[record]]
compound = "CCS(=O)(=O)c1cccc(-c2cc(C(=O)NC3CCN(C)CC3)c(C)c3[nH]c4ncc(C)cc4c23)c1 [TAK-901]"
readout_label = "normalised viability"
display_unit = "%"
obs_value = 35.2

[[record]]
compound = "O=c1[nH]c(=O)n([C@H]2C[C@H](O)[C@@H](CO)O2)cc1F [Floxuridine]"
readout_label = "normalised viability"
display_unit = "%"
obs_value = 76

[[record]]
compound = "C#Cc1cccc(Nc2ncnc3cc(OC)c(OCCCCCCC(=O)NO)cc23)c1 [CUDC-101]"
readout_label = "normalised viability"
display_unit = "%"
obs_value = 45.4


Answer with the recorded normalised viability for the compound listed here: CC(C)(C)c1cc(NC(=O)Nc2ccc(-c3cn4c(n3)sc3cc(OCCN5CCOCC5)ccc34)cc2)no1 [Quizartinib]
99.8

Item COc1ccc(C2=N[C@@H](c3ccc(Cl)cc3)[C@@H](c3ccc(Cl)cc3)N2C(=O)N2CCNC(=O)C2)c(OC(C)C)c1 [Nutlin-3] : provide normalised viability
98.7

Answer with the recorded normalised viability for the compound listed here: COC(=O)C[C@](O)(CCCC(C)(C)O)C(=O)O[C@@H]1C(OC)=C[C@]23CCCN2CCc2cc4c(cc2[C@H]13)OCO4 [Omacetaxine mepesuccinate]
13.9

Consider the compound COc1c(C)cnc(Cn2cnc3c(Cl)nc(N)nc32)c1C [BIIB021] . State its measured normalised viability.
25.1

###

Tested on: MDA-MB-453
Assay: drug sensitivity score (DSS), CellTiter-Glo (DSS (AUC-based score)); higher = stronger drug effect (viability inhibition or cytotoxicity); extreme values may be limits of the assay
Details: incubation time: 72 h
drug sensitivity score listing for selected molecules.
Hey, just send me the number, nothing else.

These recorded examples may help you get a feel for the data.
[[record]]
chemical_smiles = "COc1ncc(-c2ccc3nccc(-c4ccnnc4)c3c2)cc1NS(=O)(=O)c1ccc(F)cc1F"
tgt = "MDA-MB-453"
readout_label = "drug sensitivity score"
obs_value = 19.4

[[record]]
chemical_smiles = "CS(=O)(=O)OCCCCOS(C)(=O)=O"
tgt = "MDA-MB-453"
readout_label = "drug sensitivity score"
obs_value = 0

[[record]]
chemical_smiles = "COc1ccc(C2=N[C@@H](c3ccc(Cl)cc3)[C@@H](c3ccc(Cl)cc3)N2C(=O)N2CCNC(=O)C2)c(OC(C)C)c1"
tgt = "MDA-MB-453"
readout_label = "drug sensitivity score"
obs_value = 0.52

[[record]]
chemical_smiles = "CC(=O)O[C@H]1C(=O)[C@@]2(C)[C@H]([C@H](OC(=O)c3ccccc3)[C@]3(O)C[C@H](OC(=O)[C@H](O)[C@@H](NC(=O)c4ccccc4)c4ccccc4)C(C)=C1C3(C)C)[C@]1(OC(C)=O)CO[C@@H]1C[C@@H]2O"
tgt = "MDA-MB-453"
readout_label = "drug sensitivity score"
obs_value = 9.73

[[record]]
chemical_smiles = "COC1=C2C[C@@H](C)C[C@H](OC)[C@H](O)[C@@H](C)/C=C(\\C)[C@H](OC(N)=O)[C@@H](OC)/C=C\\C=C(/C)C(=O)NC(=CC1=O)C2=O"
tgt = "MDA-MB-453"
readout_label = "drug sensitivity score"
obs_value = 3.9


Quote drug sensitivity score reported for COc1cccc2c1C(=O)c1c(O)c3c(c(O)c1C2=O)C[C@@](O)(C(C)=O)C[C@@H]3O[C@H]1C[C@H](N)[C@H](O)[C@H](C)O1 please.
3.7

###

Tested on: SK-BR-3
Assay: normalised viability (% of control), CellTiter-Blue; higher = more viable cells (about 100 = DMSO control)
Conditions: 1 nM; incubation time: 72 h
In this section we review reported normalised viability values for a set of compounds.
Field: value (include unit after the number)

Sample records with normalised viability:
[[record]]
chemical_smiles = "CC(C)(C)c1cc(NC(=O)Nc2ccc(-c3cn4c(n3)sc3cc(OCCN5CCOCC5)ccc34)cc2)no1"
obs_value = "88.4%"

[[record]]
chemical_smiles = "Cn1c(=O)c(F)c(Nc2ccc(I)cc2F)c2c(=O)n(C[C@@H](O)CO)cnc21"
obs_value = "106%"

[[record]]
chemical_smiles = "COc1ncc(-c2ccc3nccc(-c4ccnnc4)c3c2)cc1NS(=O)(=O)c1ccc(F)cc1F"
obs_value = "77.7%"


Supply reported normalised viability belonging to this compound: CCOc1cc2ncc(C#N)c(Nc3ccc(OCc4ccccn4)c(Cl)c3)c2cc1NC(=O)/C=C/CN(C)C
107%

###

System: MFM-223
Conditions: 72 h
Returns: string. Value is MET if measured EC50, CellTiter-Glo is below 100 nM, and NOT MET if it is greater than or equal to it.

Example entries begin here.
[[record]]
chemical_smiles = "O=C(c1ccc(OCCN2CCCCC2)cc1)c1c(-c2ccc(O)cc2)sc2cc(O)ccc12"
assigned_category = "NOT MET"

[[record]]
chemical_smiles = "COc1ncc(-c2ccc3nccc(-c4ccnnc4)c3c2)cc1NS(=O)(=O)c1ccc(F)cc1F"
assigned_category = "MET"

[[record]]
chemical_smiles = "C[C@@]1(C(=O)Nc2ccc(F)nc2)CCCN1c1nc(Nc2cc(C3CC3)n[nH]2)c2cccn2n1"
assigned_category = "NOT MET"


Given the entry FC(F)c1nc2ccccc2n1-c1nc(N2CCOCC2)nc(N2CCOCC2)n1 , would its reported EC50, CellTiter-Glo be below 100 nM?
NOT MET

Take the compound CC(=O)O[C@H]1C(=O)[C@@]2(C)[C@H]([C@H](OC(=O)c3ccccc3)[C@]3(O)C[C@H](OC(=O)[C@H](O)[C@@H](NC(=O)c4ccccc4)c4ccccc4)C(C)=C1C3(C)C)[C@]1(OC(C)=O)CO[C@@H]1C[C@@H]2O and say whether its EC50, CellTiter-Glo is less than 100 nM.
MET

A record lists CCOc1cc2ncc(C#N)c(Nc3ccc(OCc4ccccn4)c(Cl)c3)c2cc1NC(=O)/C=C/CN(C)C . Is its EC50, CellTiter-Glo below 100 nM?
NOT MET

###

System: CAL-148
Assay: normalised viability (% of control), CellTiter-Blue; higher = more viable cells (about 100 = DMSO control)
Details: incubation time: 72 h
readout-label: normalised viability (%)
All answers are understood in %, so give the number only.

Study these solved cases before continuing.
[[record]]
molecule = "CN1CCN(c2ccc3nc(-c4c(N)c5c(F)cccc5[nH]c4=O)[nH]c3c2)CC1 [Dovitinib] (3000 nM)"
display_unit = "%"
obs_value = 90.2

[[record]]
molecule = "O=C(c1ccc(OCCN2CCCCC2)cc1)c1c(-c2ccc(O)cc2)sc2cc(O)ccc12 [Raloxifene] (3000 nM)"
display_unit = "%"
obs_value = 109


Consider the molecule O=P(O)(NCCCl)NCCCl [Ifosfamide mustard] (3000 nM) . State its measured normalised viability.
100

Look up and report measured normalised viability for this entry: CC(C)(C)c1cc(NC(=O)Nc2ccc(-c3cn4c(n3)sc3cc(OCCN5CCOCC5)ccc34)cc2)no1 [Quizartinib] (300 nM)
102

Tell us which normalised viability value is on record for CS(=O)(=O)OCCCCOS(C)(=O)=O [Busulfan] (30000 nM)
107

Name the recorded normalised viability of the item COc1ccc(C2=N[C@@H](c3ccc(Cl)cc3)[C@@H](c3ccc(Cl)cc3)N2C(=O)N2CCNC(=O)C2)c(OC(C)C)c1 [Nutlin-3] (3000 nM) in your answer.
72.6

Give normalised viability for COc1cccc2c1C(=O)c1c(O)c3c(c(O)c1C2=O)C[C@@](O)(C(C)=O)C[C@@H]3O[C@H]1C[C@H](N)[C@H](O)[C@H](C)O1 [Daunorubicin] (300 nM)
48.7

###

System: BT-474
Test: normalised response (% of control), CellTox Green; higher = less cell death (100 = DMSO, 0 = benzethonium chloride kill control)
Settings: incubation time: 72 h
Recorded normalised response for the following compounds
Record the value in %, omitting the unit from your answer.

The following compounds have reported results that may help.
[[record]]
compound = "COc1ccc(C2=N[C@@H](c3ccc(Cl)cc3)[C@@H](c3ccc(Cl)cc3)N2C(=O)N2CCNC(=O)C2)c(OC(C)C)c1 [Nutlin-3] (10000 nM)"
readout_label = "normalised response"
obs_value = 97.6

[[record]]
compound = "O=c1[nH]cc(F)c(=O)[nH]1 [Fluorouracil] (100 nM)"
readout_label = "normalised response"
obs_value = 93

[[record]]
compound = "C[C@@H]1CCN(C(=O)CC#N)C[C@@H]1N(C)c1ncnc2[nH]ccc12 [Tofacitinib] (500 nM)"
readout_label = "normalised response"
obs_value = 104


Now examine the next entry.
# return recorded normalised response for entry CC(C)(C)c1cc(NC(=O)Nc2ccc(-c3cn4c(n3)sc3cc(OCCN5CCOCC5)ccc34)cc2)no1 [Quizartinib] (1000 nM)
101
